Reference source: paper PMC11387822

BuChE (Homo sapiens, UniProt P06276): reported IC50 for various compounds.
Sequence (P06276 29-602): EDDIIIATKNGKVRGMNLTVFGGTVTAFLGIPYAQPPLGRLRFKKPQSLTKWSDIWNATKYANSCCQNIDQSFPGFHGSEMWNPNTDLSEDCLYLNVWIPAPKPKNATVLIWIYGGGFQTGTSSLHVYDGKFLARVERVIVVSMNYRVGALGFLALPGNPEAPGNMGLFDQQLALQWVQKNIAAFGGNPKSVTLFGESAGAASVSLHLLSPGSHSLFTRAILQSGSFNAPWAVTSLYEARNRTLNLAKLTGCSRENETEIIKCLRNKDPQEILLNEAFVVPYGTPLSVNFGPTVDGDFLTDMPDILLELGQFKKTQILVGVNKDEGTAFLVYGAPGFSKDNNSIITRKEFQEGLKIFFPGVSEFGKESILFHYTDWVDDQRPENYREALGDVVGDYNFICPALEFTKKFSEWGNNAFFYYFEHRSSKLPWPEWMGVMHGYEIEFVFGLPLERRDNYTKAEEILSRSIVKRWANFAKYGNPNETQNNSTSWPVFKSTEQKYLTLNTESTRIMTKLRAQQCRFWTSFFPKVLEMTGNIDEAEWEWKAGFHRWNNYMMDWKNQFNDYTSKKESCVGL
Your answer should be a plain number; it is taken to be in µM.

1) Cn1cc(-c2cc(C(=O)NN=Cc3cccc([N+](=O)[O-])c3)no2)c2ccccc21
71.3

Query compound follows.
Q: Which IC50 is listed for `Cn1cc(-c2cc(C(=O)NN=Cc3ccccc3O)no2)c2ccccc21` ?
Result: 92.8

----------
System: AChE (Homo sapiens) | Read-out: pIC50
Sequence (P22303 32-614): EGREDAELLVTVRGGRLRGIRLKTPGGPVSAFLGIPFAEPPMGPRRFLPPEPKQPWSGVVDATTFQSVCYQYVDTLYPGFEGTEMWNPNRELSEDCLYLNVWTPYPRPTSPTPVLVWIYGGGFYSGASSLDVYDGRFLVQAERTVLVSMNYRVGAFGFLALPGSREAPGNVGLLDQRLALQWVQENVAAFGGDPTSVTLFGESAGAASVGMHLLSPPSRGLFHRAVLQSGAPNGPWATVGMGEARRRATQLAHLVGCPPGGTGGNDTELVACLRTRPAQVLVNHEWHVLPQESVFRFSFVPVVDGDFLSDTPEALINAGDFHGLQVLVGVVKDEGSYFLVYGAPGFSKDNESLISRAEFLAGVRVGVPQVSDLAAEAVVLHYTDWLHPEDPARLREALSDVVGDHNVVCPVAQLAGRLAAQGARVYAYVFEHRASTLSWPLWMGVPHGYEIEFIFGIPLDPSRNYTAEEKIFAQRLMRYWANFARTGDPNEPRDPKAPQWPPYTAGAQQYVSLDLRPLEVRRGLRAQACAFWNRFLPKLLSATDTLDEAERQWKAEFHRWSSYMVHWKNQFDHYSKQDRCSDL
// pIC50: -log10(molar conc.)

1) COc1cccc(C=NNC(=O)c2cc(-c3cn(C)c4ccccc34)on2)c1
4.53

Then there is this compound:
Q: # returns recorded pIC50 (system: AChE (Homo sapiens)) for `COc1cccc(C=NNC(=O)c2cc(-c3cn(C)c4ccccc34)on2)c1O`
Result: 4.20
